system-under-test: HCMV polymerase (Human cytomegalovirus)
Sequence (P08546 whole entry): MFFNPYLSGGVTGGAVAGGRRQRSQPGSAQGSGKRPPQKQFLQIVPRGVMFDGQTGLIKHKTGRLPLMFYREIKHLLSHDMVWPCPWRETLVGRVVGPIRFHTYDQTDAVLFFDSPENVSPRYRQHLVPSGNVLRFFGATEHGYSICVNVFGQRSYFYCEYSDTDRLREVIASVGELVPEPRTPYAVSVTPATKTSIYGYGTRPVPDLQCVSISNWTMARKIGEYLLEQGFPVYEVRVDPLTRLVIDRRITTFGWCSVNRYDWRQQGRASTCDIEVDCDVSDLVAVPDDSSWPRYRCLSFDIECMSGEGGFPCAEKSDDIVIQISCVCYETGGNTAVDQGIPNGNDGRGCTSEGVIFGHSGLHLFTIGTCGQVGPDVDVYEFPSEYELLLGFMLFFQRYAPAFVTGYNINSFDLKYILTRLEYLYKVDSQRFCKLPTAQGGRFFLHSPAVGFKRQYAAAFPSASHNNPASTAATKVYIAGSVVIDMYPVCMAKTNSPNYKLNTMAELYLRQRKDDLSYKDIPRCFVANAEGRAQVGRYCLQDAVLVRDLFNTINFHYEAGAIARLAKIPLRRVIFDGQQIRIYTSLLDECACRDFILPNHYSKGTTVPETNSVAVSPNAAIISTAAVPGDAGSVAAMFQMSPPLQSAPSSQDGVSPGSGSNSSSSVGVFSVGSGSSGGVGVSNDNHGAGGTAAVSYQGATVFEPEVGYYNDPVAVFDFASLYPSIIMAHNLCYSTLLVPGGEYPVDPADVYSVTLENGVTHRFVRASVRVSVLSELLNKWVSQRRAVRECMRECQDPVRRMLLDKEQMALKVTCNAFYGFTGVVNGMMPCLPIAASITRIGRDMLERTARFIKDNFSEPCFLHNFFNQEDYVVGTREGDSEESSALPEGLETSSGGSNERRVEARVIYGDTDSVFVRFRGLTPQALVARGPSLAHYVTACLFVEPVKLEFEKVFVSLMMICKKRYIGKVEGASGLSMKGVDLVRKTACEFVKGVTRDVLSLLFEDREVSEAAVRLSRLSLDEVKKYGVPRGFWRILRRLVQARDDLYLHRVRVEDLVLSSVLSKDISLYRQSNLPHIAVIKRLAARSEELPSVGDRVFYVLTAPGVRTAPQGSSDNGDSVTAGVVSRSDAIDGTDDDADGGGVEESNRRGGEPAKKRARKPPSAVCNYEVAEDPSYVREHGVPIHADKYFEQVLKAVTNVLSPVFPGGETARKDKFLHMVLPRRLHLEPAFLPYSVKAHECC
test-summary: HCMV polymerase assay (scintillation proximity assay, modified version)
condition-info: modified SPA assay, compounds diluted in 100% DMSO, 4.5 mM DTT
assay-readout: IC50 (nM)

(P) O=C(NCc1ccc(Cl)cc1)c1cn2c3c(cc(C#CCO)cc3c1=O)OCC2
(Q) O=C(NCc1ccc(Cl)cc1)c1cn2c3c(cc(CN4CCOCC4)cc3c1=O)OCC2
(R) CCCc1cc2c3c(c1)c(=O)c(C(=O)NCc1ccc(Cl)cc1)cn3CCO2
Please list these in order of increasing IC50. Thank you! Lab note: record answer as labels in requested order.
Q, P, R

###

system-under-test: VZV polymerase (Varicella-zoster virus)
Sequence (P09252 whole entry): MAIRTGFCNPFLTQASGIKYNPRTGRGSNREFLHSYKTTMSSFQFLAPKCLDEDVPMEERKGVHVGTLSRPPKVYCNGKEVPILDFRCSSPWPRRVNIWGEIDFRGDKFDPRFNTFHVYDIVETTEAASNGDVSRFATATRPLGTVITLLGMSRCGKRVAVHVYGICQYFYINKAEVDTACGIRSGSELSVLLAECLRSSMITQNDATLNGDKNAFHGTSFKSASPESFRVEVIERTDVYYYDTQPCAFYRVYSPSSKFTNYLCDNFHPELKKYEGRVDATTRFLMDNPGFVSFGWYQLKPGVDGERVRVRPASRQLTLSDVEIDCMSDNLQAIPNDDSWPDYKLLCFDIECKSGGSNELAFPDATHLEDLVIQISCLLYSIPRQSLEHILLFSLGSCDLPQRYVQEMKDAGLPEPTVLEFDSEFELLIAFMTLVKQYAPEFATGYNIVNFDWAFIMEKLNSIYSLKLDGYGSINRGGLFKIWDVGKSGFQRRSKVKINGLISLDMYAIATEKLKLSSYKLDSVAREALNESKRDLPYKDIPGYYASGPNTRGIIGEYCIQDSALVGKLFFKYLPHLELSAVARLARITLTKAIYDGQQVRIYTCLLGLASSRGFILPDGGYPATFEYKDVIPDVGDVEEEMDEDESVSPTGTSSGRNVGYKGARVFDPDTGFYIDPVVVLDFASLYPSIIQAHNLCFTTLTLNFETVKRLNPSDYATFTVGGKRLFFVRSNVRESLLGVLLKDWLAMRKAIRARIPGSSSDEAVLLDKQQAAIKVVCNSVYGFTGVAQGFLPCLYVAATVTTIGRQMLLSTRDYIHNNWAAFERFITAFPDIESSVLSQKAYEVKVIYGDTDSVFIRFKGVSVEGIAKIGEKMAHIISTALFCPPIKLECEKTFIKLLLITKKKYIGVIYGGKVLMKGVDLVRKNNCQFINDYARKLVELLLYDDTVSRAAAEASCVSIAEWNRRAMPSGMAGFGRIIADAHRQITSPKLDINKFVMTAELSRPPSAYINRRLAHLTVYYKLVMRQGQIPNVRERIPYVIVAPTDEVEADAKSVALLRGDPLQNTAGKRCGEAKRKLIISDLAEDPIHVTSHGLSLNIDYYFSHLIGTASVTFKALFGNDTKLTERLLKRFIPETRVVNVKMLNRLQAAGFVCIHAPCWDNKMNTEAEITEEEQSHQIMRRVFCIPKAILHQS
assay-readout: IC50 (nM)
Dear colleague, please return just the value in nM, with no unit written.

Lab request: please report IC50 under test system VZV polymerase (Varicella-zoster virus) for O=C(NCc1ccc(Cl)cc1)c1cn2c3c(cc(CCCO)cc3c1=O)OCC2 [Example 3A]
210
